Hello, the source for this data is patent US9757375B2, in case you need it.

Listed molecules paired with reported IC50
Tested on: MCF10A cells
ASSAY OVERVIEW: MTT cell growth assay
Assay type: cell-based, human
EXPERIMENTAL PARAMETERS: Homo sapiens, MCF-10A; cell growth, compound alone; read-out: IC50 (μM) MCF10A
Procedure: The activity of hits from the initial screen was further validated using the MTT assay. Briefly, MCF10A and HCT116 cells were seeded in 96 well plates at 300 and 1200 cells per well, respectively, and allowed to adhere overnight. […] Formazan crystals generated by reduction of the MTT reagent in mitochondria were solubilized with isopropanol prior to the measurement of absorbance at 560 nm wavelength in a plate reader. […]
I only need the number, in µM, no unit after it.

Solved entries:
{"COMPOUND STRUCTURE STRING": "O=C(O)CSc1cc(Cl)c2nonc2c1[N+](=O)[O-]", "ASSAYED TARGET": "MCF10A cells", "ENDPOINT RESULT": 50}
{"COMPOUND STRUCTURE STRING": "Cc1c(Br)cc(NCC(=O)N/N=C\\c2cc([N+](=O)[O-])ccc2O)cc1Br", "ASSAYED TARGET": "MCF10A cells", "ENDPOINT RESULT": 4}
{"COMPOUND STRUCTURE STRING": "O=C1Nc2ccccc2Oc2cc([N+](=O)[O-])cc([N+](=O)[O-])c21", "ASSAYED TARGET": "MCF10A cells", "ENDPOINT RESULT": 3}
{"COMPOUND STRUCTURE STRING": "O=C(Nc1nc2ccccc2s1)c1ccc(Cl)c([N+](=O)[O-])c1", "ASSAYED TARGET": "MCF10A cells", "ENDPOINT RESULT": 3}
{"COMPOUND STRUCTURE STRING": "O=c1[nH]cc(/C=N/Nc2ncnc3[nH]cnc23)c(=O)[nH]1", "ASSAYED TARGET": "MCF10A cells", "ENDPOINT RESULT": 40}
{"COMPOUND STRUCTURE STRING": "C=CCN1C(=O)/C(=N\\NC(=O)c2ccccc2O)c2ccccc21", "ASSAYED TARGET": "MCF10A cells", "ENDPOINT RESULT": 7.5}
{"COMPOUND STRUCTURE STRING": "Nn1cnnc1N/N=C/c1cc([N+](=O)[O-])c(Cl)cc1Cl", "ASSAYED TARGET": "MCF10A cells", "ENDPOINT RESULT": 3}
{"COMPOUND STRUCTURE STRING": "O=C(Cn1cnc([N+](=O)[O-])n1)N/N=C/c1ccc(O)cc1O", "ASSAYED TARGET": "MCF10A cells", "ENDPOINT RESULT": 6}

Attention now shifts to the item below.
// `O=C(O)c1ccccc1Nc1ccc([N+](=O)[O-])c2nonc12` : IC50 value = 6
